System: Vero E6
Assay: cell viability relative to DMSO; higher = less toxic
Settings: 72 h; 100 nM
# cell viability annotations
PROPERTY_LABEL: cell viability (%)

COc1cc2ncnc(Nc3cccc(Br)c3)c2cc1OC :: 102
O=[N+]([O-])c1cccc2cn[nH]c12 :: 99.6
C=CC[C@@H]1/C=C(\C)C[C@H](C)C[C@H](OC)[C@H]2O[C@@](O)(C(=O)C(=O)N3CCCC[C@H]3C(=O)O[C@H](/C(C)=C/[C@@H]3CC[C@@H](O)[C@H](OC)C3)[C@H](C)[C@@H](O)CC1=O)[C@H](C)C[C@@H]2OC :: 88.5
[N-]=[N+]=N[C@]1(CO)O[C@@H](n2ccc(N)nc2=O)[C@H](O)[C@@H]1O :: 97.8
